# PROCEDURE_DETAILS: Plasma isepamicin after intraduodenal isepamicin/PEP (HPLC)
# Format: in vivo
# MEASUREMENT_CONTEXT: male, Sprague-Dawley, rat, other: intraduodenal, rats, isepamicin/PEP 75 mg/kg isepamicin, 360 min

SMILES_ENTRY | concentration at 360 min [ng/mL]
CN[C@@H]1[C@@H](O)[C@@H](O[C@@H]2[C@@H](O)[C@H](O[C@H]3O[C@H](CN)[C@@H](O)[C@H](O)[C@H]3O)[C@@H](N)C[C@H]2NC(=O)[C@@H](O)CN)OC[C@]1(C)O | 35800

* * *

# PROCEDURE_DETAILS: Plasma isepamicin after intraduodenal isepamicin/PEP (HPLC)
# Assay type: in vivo
# MEASUREMENT_CONTEXT: male, Sprague-Dawley, rat, other: intraduodenal, rats, isepamicin/PEP (75 mg/kg isepamicin, 400 mg/kg sucrose stearate, glucosamine, methylcellulose), 30 min

SMILES_ENTRY | concentration at 30 min, µg/mL
CN[C@@H]1[C@@H](O)[C@@H](O[C@@H]2[C@@H](O)[C@H](O[C@H]3O[C@H](CN)[C@@H](O)[C@H](O)[C@H]3O)[C@@H](N)C[C@H]2NC(=O)[C@@H](O)CN)OC[C@]1(C)O | 84.2

* * *

# PROCEDURE_DETAILS: Plasma netilmicin after intraduodenal netilmicin/PEP (HPLC)
# Format: in vivo
# MEASUREMENT_CONTEXT: male, Sprague-Dawley, rat, other: intraduodenal, rats, netilmicin/PEP 80 mg/kg netilmicin, 360 min
# Procedure: The abdominal muscle was sutured under the skin. […] Four rats were in each treatment group. […] Netilmicin solution was mixed with a solution of methylcellulose, and this mixture was added to solutions of glucosamine and sucrose stearate in water before administration to rats. […] Plasma was analyzed by HPLC, and bioavailability was calculated.

SMILES_ENTRY | concentration at 360 min / ng/mL
CCN[C@@H]1C[C@H](N)[C@@H](O[C@H]2OC(CN)=CC[C@H]2N)[C@H](O)[C@H]1O[C@H]1OC[C@](C)(O)[C@H](NC)[C@H]1O | 34800

* * *

# PROCEDURE_DETAILS: Plasma isepamicin after intraduodenal isepamicin/PEP (HPLC)
# Type: in vivo
# MEASUREMENT_CONTEXT: male, Sprague-Dawley, rat, other: intraduodenal, rats, isepamicin/PEP 75 mg/kg isepamicin, 120 min

COMPOUND | concentration at 120 min
CN[C@@H]1[C@@H](O)[C@@H](O[C@@H]2[C@@H](O)[C@H](O[C@H]3O[C@H](CN)[C@@H](O)[C@H](O)[C@H]3O)[C@@H](N)C[C@H]2NC(=O)[C@@H](O)CN)OC[C@]1(C)O [Isepamicin] | 73.6 µg/mL

* * *

# PROCEDURE_DETAILS: Plasma aztreonam after intraduodenal aztreonam/PEP (HPLC)
# Type: in vivo
# MEASUREMENT_CONTEXT: male, Sprague-Dawley, rat, rats, aztreonam/PEP 40 mg/kg aztreonam, read-out: percent bioavailability

SMILES_ENTRY | UNIT | bioavailability
C[C@H]1[C@H](NC(=O)/C(=N\OC(C)(C)C(=O)O)c2csc(N)n2)C(=O)N1S(=O)(=O)O | % | 91.1

* * *

# PROCEDURE_DETAILS: Plasma aztreonam after intraduodenal aztreonam/PEP (HPLC)
# Assay type: in vivo
# MEASUREMENT_CONTEXT: male, Sprague-Dawley, rat, other: intraduodenal, rats, aztreonam/PEP 40 mg/kg aztreonam, 120 min
OBSERVABLE: concentration at 120 min (µg/mL)

SMILES_ENTRY | NUMBER
C[C@H]1[C@H](NC(=O)/C(=N\OC(C)(C)C(=O)O)c2csc(N)n2)C(=O)N1S(=O)(=O)O | 89.6

The measured values listed here are drawn from patent US7666446B2.
